target: DLL4 (human, UniProt Q9NR61); experiment: ELISA
Sequence (Q9NR61 27-524): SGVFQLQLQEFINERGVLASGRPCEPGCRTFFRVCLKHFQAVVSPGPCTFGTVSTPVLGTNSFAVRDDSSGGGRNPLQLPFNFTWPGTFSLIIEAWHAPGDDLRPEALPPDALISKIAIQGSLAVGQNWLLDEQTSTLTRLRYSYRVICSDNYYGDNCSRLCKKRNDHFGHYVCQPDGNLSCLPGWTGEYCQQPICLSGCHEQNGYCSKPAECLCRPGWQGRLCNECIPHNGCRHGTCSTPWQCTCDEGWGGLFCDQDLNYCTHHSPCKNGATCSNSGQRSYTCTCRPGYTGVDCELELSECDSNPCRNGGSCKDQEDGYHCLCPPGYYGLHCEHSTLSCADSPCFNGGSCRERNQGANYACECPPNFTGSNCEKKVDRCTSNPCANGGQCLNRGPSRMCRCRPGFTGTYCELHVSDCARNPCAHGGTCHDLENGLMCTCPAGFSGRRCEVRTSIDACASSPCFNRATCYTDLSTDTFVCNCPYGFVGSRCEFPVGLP
pEC50: −log10 of the molar value.
parameter: pEC50

>>> reading("DVD480 DLL4 arm (antibody, DVD-Ig inner) chain 1: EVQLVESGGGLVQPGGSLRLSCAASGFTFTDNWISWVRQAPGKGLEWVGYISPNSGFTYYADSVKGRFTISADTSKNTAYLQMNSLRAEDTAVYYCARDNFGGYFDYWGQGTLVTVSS chain 2: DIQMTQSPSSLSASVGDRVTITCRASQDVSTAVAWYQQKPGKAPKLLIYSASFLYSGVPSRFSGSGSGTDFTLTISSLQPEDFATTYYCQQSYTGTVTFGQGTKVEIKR")
9.22
>>> reading("DVD458 DLL4 arm (antibody, V domains shown, DVD-Ig inner) VH: QVQLVQSGAEVKKPGASVKISCKASGYSFTAYYIHWVKQAPGQGLEWIGYISSYNGATNYNQKFKGRVTFTTDTSTSTAYMELRSLRSDDTAVYYCARDYDYDVGMDYWGQGTLVTVSS VL: DIVMTQSPDSLAVSLGERATISCRASESVDNYGISFMKWFQQKPGQPPKLLIYAASNQGSGVPDRFSGSGSGTDFTLTISSLQAEDVAVYYCQQSKEVPWTFGGGTKVEIKR")
8.81
